# GI50 per record follows
Test system: COLO 205
Procedure summary: NCI tumour cell line growth inhibition, 48 h
The source made the active and inactive calls. Cut-off read from the data, not from the text of the source: active = GI50 up to about 1.1 µM and inactive = higher.

| Compound | GI50 |
| --- | --- |
| N#Cc1c(N2CCOCC2)[nH]c(=O)c(C(c2c(Cl)cccc2Cl)c2c(O)c(C#N)c(N3CCOCC3)[nH]c2=O)c1O | 13.8 µM (inactive) |
| CN(C)Cc1cc(C(=O)/C=C/c2ccccc2)cc(CN(C)C)c1O | 17.8 µM (inactive) |
| c1ccc2c3nnc(c2c1)SCCSCCSc1nnc(c2ccccc12)SCCSCCS3 | > 100 µM (inactive) |
| O=C1C(Cl)C2(CC(/C=C/c3ccccc3O)=NN2c2cccc(S(=O)(=O)O)c2)N1c1nc2ccccc2s1 (stereo not given) | 18.9 µM (inactive) |
| CN(C)c1ccc(/C=C2\CCCCCC2=O)cc1 | > 100 µM (inactive) |
| CN(C(=O)Cc1cc(Cl)c(Cl)cc1N=C=S)[C@H]1CCCC[C@@H]1N1CCCC1 | 9.73 µM (inactive) |
| C(=C1\CCC/C(=C/c2ccccc2)C1=NNc1ccccc1)/c1ccccc1 | > 100 µM (inactive) |
| NC(=O)c1nnsc1NC=O | > 100 µM (inactive) |
| CC1CC#CCOC(=O)CCCC1=O (stereo not given) | > 100 µM (inactive) |
| O=C(NO)c1ccc(O)c(O)c1 | > 100 µM (inactive) |
| CC1=NN(c2nc(N)nc(/C(C#N)=C/c3cccn3-c3cc(Cl)cc(Cl)c3)n2)C(C)(C)C1 | > 100 µM (inactive) |
| CC(=O)c1ccc(N2C(=O)C3c4[nH]c5ccccc5c4C4CCC(C(C)(C)C)CC4C3C2=O)cc1 (stereo not given) | 15.2 µM (inactive) |
| CCOC(=O)c1nnc2c(C(=O)OCC)c3ccccc3n2c1N | 10.2 µM (inactive) |
| COc1ccc(C2CC(=O)CC(c3ccc(OC)cc3)C23C(=O)NC(=S)NC3=O)cc1 (stereo not given) | > 100 µM (inactive) |
| CC(=O)C(=N\Nc1ccc(Cl)cc1)/C(C)=N/c1ccc(C)cc1 | 21.3 µM (inactive) |
